B1: ICA1L peptide 453-468 (Islet cell autoantigen 1-like protein), 16-mer library wild type / NSP16 (ORF1ab Nsp16, residues 6799-7088) (parent)
chain 1: MSAWFNLFADLDPLSN
chain 2: SSQAWQPGVAMPNLYKMQRMLLEKCDLQNYGDSATLPKGIMMNVAKYTQLCQYLNTLTLAVPYNMRVIHFGAGSDKGVAPGTAVLRQWLPTGTLLVDSDLNDFVSDADSTLIGDCATVHTANKWDLIISDMYDPKTKNVTKENDSKEGFFTYICGFIQQKLALGGSVAIKITEHSWNADLYKLMGHFAWWTAFVTNVNASSSEAFLIGCNYLGKPREQIDGYVMHANYIFWRNTNPIQLSSYSLFDMSKFPLKLRGTAVMSLKEGQINDMILSLLSKGRLIIRENNRVVI

Variants of: B1
Settings: with NSP16 (ORF1ab Nsp16, residues 6799-7088); bait immobilised on MaxiSorp plates (10 µg), library pre-cleared on GST, 2 h binding at 4 °C, five washes; one round per day, days 1-4; value from days 2 and 3; keep out of graded; scale: average fractional NGS count over selection days 2 and 3
# Lookup of reported screen value keyed by entry
Just the number, please, no unit after it.

Sample records with screen value:
chain 1 A3D = 4.01e-05
chain 1 A9N = 0
chain 1 L7S = 0
chain 1 N6K = 0
chain 1 F5L = 0
chain 1 D10Y = 6.76e-05

Okay, next one:
QUERY: Suppose we examine the variant chain 1 F5W ; what screen value value has been reported?
RESULT: 0
